Cited source: the supplement of paper PMC9170038

Some sequences, each annotated with its measured apparent KD of MS2 coat protein.
# Test system: MS2 coat protein
# experimental.protocol: apparent KD of MS2 coat protein; higher = weaker reporter binding
# test.parameters: Eterna round: R107; input ligand: none
readout: apparent KD of MS2 coat protein

UCGGGCAGAGCGGCCGCCACUGUUUGGCAUGCGGAUGAAGGAACAUGAGGAUCACCCAUGUAGAUUAGGACCGGGCUUGCGGAGA [rvcmullin]; 18.2 nM
GUCCUAGCGAGCACUCGCUAGGACGCGGAUACCAGCGAGGUCCAUCGCCCUUGGCAGCCGAACAUGAGGAUCACCCAUGUCGGUA [#1 Same State - Theophylline A Attempt #17 (HarryS)]; 10 nM
UGUUUGGUGCGCGAGUGUUGGAUAAUUGAUACCAGUGAAGAAGAGCGCCCUUGGCAGCGAAUCCUAACAUGAGGAUCACCCAUGU [5.U]; 39.7 nM
UGUAUGGACUGAAGGAGCGCCUCAAAAUAUCAUGAGGAUCACCCAUGGAAGGCGAAAGCCGGGCAGGUAGGUCGCAGUCCAUACU [ArgBX 3]; 15.6 nM
AAAAUCCUAUCUGAGGAUCACCCAGGUGAAGGAGCGCCCGAAAGGGCAGGUAGGUCGCACCUGAGGAUCACCCUGGUAACCUAAA [ArgEX 10 #DoubleMS2 #OpenEnded #AlternativeMS2]; 102 nM
GCUUGGGUGGCCCAGCCCUGGCAGGGCGAUACCAGCCCGGUAACGGGCCCUUGGCAGCGCACAUGAGGAUCACCCAUGUGGUGCG [#1 Exclusion - Theophylline A Attempt #28 (HarryS)]; 52.4 nM
AAUUUUAACGGAAGGAGCGUCACGUAAUUCAUACAUGAGGAUCACCCAUGUUAGUUGUAGAGACAGGUAGGUCGCCGUUAUUUGA [JR_AAArginiB_Sub025]; 15.7 nM
